- experimental_system: Tubulin alpha chain (Sus scrofa, UniProt P02550)
- Sequence (P02550 whole entry, looked up): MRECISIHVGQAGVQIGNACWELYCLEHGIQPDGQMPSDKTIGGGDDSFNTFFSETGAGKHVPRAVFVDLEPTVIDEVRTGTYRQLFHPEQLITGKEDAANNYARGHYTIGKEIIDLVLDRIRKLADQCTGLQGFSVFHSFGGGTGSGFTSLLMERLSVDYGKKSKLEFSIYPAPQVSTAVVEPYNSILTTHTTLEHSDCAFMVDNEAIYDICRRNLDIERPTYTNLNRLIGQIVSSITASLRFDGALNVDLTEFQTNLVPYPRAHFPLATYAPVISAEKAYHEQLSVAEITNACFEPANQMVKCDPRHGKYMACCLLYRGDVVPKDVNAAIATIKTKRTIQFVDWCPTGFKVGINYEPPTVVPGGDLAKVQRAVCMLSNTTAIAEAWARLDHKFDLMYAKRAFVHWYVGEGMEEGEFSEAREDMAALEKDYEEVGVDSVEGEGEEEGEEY
- method: In vitro mammalian brain tubulin polymerization using standard assay.
- Assay type: functional
outcome_measure: IC50 (nM)

COC(=O)Nc1cn2nc(OCc3cc(OC)c(OC)c(OC)c3)ccc2n1 :: 310

###

- Tested on: P388
- method: The compound was evaluated in vitro for the P388 cell spindle disruption.; 0.006-0.009
- Type: functional, cell-based
- assay_context: Mus musculus
outcome_measure: EC50 (nM)

COC(=O)Nc1cn2nc(OCc3cc(OC)c(OC)c(OC)c3)ccc2n1 :: 6

###

- Test system: P388
- method: Compound was tested for % increase in life span of vincristine resistant P388 tumor
- Type: functional, Mus musculus
outcome_measure: ILS

CC[C@]1(O)C[C@H]2CN(CCc3c([nH]c4ccccc34)[C@@](C(=O)OC)(c3cc4c(cc3OC)N(C=O)[C@H]3[C@@](O)(C(=O)OC)[C@H](OC(C)=O)[C@]5(CC)C=CCN6CC[C@]43[C@@H]65)C2)C1 [VINCRISTINE] :: ~10%
CC[C@]1(O)C[C@@H]2CN(CCc3c([nH]c4ccccc34)[C@@](C(=O)OC)(c3cc4c(cc3OC)N(C)[C@H]3[C@@](O)(C(=O)OC)[C@H](OC(C)=O)[C@]5(CC)C=CCN6CC[C@]43[C@@H]65)C2)C1 [VINBLASTINE] :: ~50%
COc1cc2c(c(OC)c1OC)-c1ccc(OC)c(=O)cc1[C@@H](NC(C)=O)CC2 [COLCHICINE] :: ~75%
COC(=O)Nc1cn2nc(OCc3cc(OC)c(OC)c(OC)c3)ccc2n1 :: ~170%
